Recorded pIC50 for the following compounds
Assay: Cytotoxicity against human C4-2B cells after 72 hrs by AlamarBlue end point assay
Assay type: functional, cell-based
Settings: LNCaP C4-2B
pIC50: −log10 of the molar value.
readout_label: pIC50

[[record]]
compound = "C=C1C[C@]23C[C@H](OC(C)=O)[C@]4(O)[C@@]5(C)C[C@H](O)C[C@]46C([C@H]2[C@H]1[C@@H](OC(=O)/C(C)=C/C)[C@@H](OC(=O)/C(C)=C/C)[C@H]36)N(C)C5.O=C(O)C(F)(F)F (some centres undefined)"
reported_measurement = 8.21

[[record]]
compound = "C=C1C[C@@]23[C@H]4[C@H](OC(=O)/C(C)=C/CO)[C@H](OC(=O)/C(C)=C/C)[C@@H]1[C@@H]2C1N(C)C[C@]2(C)C[C@H](O)C[C@@]14[C@]2(O)[C@@H](O)[C@@H]3O (some centres undefined)"
reported_measurement = 6.87

[[record]]
compound = "C=C1C[C@]23C[C@H](O)[C@]4(O)[C@@]5(C)C[C@H](O)C[C@]46C([C@H]2[C@H]1[C@@H](OC(=O)/C(C)=C/C)[C@@H](OC(=O)c1ccccc1)[C@H]36)N(C)C5 (some centres undefined)"
reported_measurement = 6.69

[[record]]
compound = "C=C1C[C@]23C[C@H](O)[C@]4(O)[C@@]5(C)C[C@H](O)C[C@]46C([C@H]2[C@H]1[C@@H](OC(=O)/C(C)=C/C)[C@@H](OC(=O)/C(C)=C/C)[C@H]36)N(C)C5 (some centres undefined)"
reported_measurement = 7.35


====

Test: Cytotoxicity against human C4-2B cells after 72 hrs by AlamarBlue end point assay
Assay type: functional, cell-based
Conditions: LNCaP C4-2B
Mark YES only for IC50 values smaller than 7 nM; exact matches and larger values are NO.

[[record]]
compound = "CC[C@]1(O)C[C@@H]2CN(CCc3c([nH]c4ccccc34)[C@@](C(=O)OC)(c3cc4c(cc3OC)N(C)[C@H]3[C@@](O)(C(=O)OC)[C@H](OC(C)=O)[C@]5(CC)C=CCN6CC[C@]43[C@@H]65)C2)C1 [VINBLASTINE]"
class_assignment = "YES"

[[record]]
compound = "C=C1C[C@@]23[C@H]4[C@H](OC(=O)c5ccccc5)[C@H](OC(=O)/C(C)=C/C)[C@@H]1[C@@H]2C1N(C)C[C@]2(C)C[C@H](O)C[C@@]14[C@]2(O)[C@@H](O)[C@@H]3O (stereo not given in full)"
class_assignment = "YES"

[[record]]
compound = "C=C1C[C@@]23[C@H]4[C@H](OC(=O)/C(C)=C/C)[C@H](OC(=O)/C(C)=C/C)[C@@H]1[C@@H]2C1N(C)C[C@]2(C)C[C@H](O)C[C@@]14[C@]2(O)[C@@H](O)[C@@H]3O (stereo not given in full)"
class_assignment = "NO"

[[record]]
compound = "C=C1C[C@]23C[C@H](O)[C@]4(O)[C@@]5(C)C[C@H](O)C[C@]46C([C@H]2[C@H]1[C@@H](OC(=O)/C(C)=C/C)[C@@H](OC(=O)/C(C)=C/CO)[C@H]36)N(C)C5 (stereo not given in full)"
class_assignment = "NO"


Source: ChEMBL document CHEMBL3758141
